Would you kindly list DC50 for each of these compounds?
- TGT: PTPN2 (Homo sapiens)
- Construct: expressed in transfected cells; host or cells: 293T (293T.109 HiBiT-PTPN2 line; parental 293T WT from ATCC)
- Sequence (P17706 whole entry, species assumed): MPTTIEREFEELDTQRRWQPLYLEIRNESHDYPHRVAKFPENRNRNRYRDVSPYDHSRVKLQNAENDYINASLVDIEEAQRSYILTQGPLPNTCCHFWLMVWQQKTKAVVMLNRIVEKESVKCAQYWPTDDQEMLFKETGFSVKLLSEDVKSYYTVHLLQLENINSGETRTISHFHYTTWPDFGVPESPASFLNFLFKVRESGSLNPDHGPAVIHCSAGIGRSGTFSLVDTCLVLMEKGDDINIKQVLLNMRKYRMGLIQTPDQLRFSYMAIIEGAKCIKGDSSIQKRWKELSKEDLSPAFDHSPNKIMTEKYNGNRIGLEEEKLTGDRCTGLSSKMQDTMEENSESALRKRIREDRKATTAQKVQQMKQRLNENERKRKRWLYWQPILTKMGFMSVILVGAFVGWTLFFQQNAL
- ASSAY_SUMMARY: HiBiT-Degradation 293T.109 PTPN2 (Nano-Glo HiBiT Lytic Assay)
- Assay type: cell-based
- TEST_CONTEXT: 293T.109 (HiBiT-PTPN2) cells, 24.0 hours

- Cn1c(=O)n(C2CCC(=O)NC2=O)c2ccc(N3CCC4(CC3)CN(C(=O)c3ccc5c(F)c(N6CC(=O)NS6(=O)=O)c(O)cc5c3)C4)cc21 (stereo not drawn) [Example 56]: ≥ 1000 nM
- Cn1nc(C2CCC(=O)NC2=O)c2ccc(C3CCN(CC(=O)Nc4ccc5c(F)c(N6CC(=O)NS6(=O)=O)c(O)cc5c4)CC3(F)F)cc21 (stereo not drawn) [Example 114]: 50 to 200 nM
- O=C1CCC(Nc2ccc(C3CCN(CC(=O)Nc4ccc5c(F)c(N6CC(=O)NS6(=O)=O)c(O)cc5c4)CC3)c(F)c2)C(=O)N1 (stereo not drawn) [Example 55]: 200 to 1000 nM
- O=C1CCC(N2C(=O)c3cccc(NCc4cn(CCC(=O)Nc5ccc6c(Cl)c(N7CC(=O)NS7(=O)=O)c(O)cc6c5)nn4)c3C2=O)C(=O)N1 (stereo not drawn) [Example 69]: ≥ 1000 nM
- Cn1c(=O)n(C2CCC(=O)NC2=O)c2ccc(N3CCC(O)(CC(=O)Nc4ccc5c(F)c(N6CC(=O)NS6(=O)=O)c(O)cc5c4)CC3)cc21 (stereo not drawn) [Example 82]: < 10 nM

# input for lookup
The value of DC50 measured for the compound O=C(CCCCCn1cc(CNc2cccc3c2C(=O)N(C2CCC(=O)NC2=O)C3=O)nn1)NCCOc1ccc2cc(O)c(N3CC(=O)NS3(=O)=O)c(Cl)c2c1 (stereo not drawn) [Example 49] turned out to be ≥ 1000 nM
